Hi there, I'd appreciate the recorded inhibition at 25 µM for every entry that follows.
- study.system: JMJD3 (Homo sapiens, UniProt O15054)
- Sequence (O15054 whole entry): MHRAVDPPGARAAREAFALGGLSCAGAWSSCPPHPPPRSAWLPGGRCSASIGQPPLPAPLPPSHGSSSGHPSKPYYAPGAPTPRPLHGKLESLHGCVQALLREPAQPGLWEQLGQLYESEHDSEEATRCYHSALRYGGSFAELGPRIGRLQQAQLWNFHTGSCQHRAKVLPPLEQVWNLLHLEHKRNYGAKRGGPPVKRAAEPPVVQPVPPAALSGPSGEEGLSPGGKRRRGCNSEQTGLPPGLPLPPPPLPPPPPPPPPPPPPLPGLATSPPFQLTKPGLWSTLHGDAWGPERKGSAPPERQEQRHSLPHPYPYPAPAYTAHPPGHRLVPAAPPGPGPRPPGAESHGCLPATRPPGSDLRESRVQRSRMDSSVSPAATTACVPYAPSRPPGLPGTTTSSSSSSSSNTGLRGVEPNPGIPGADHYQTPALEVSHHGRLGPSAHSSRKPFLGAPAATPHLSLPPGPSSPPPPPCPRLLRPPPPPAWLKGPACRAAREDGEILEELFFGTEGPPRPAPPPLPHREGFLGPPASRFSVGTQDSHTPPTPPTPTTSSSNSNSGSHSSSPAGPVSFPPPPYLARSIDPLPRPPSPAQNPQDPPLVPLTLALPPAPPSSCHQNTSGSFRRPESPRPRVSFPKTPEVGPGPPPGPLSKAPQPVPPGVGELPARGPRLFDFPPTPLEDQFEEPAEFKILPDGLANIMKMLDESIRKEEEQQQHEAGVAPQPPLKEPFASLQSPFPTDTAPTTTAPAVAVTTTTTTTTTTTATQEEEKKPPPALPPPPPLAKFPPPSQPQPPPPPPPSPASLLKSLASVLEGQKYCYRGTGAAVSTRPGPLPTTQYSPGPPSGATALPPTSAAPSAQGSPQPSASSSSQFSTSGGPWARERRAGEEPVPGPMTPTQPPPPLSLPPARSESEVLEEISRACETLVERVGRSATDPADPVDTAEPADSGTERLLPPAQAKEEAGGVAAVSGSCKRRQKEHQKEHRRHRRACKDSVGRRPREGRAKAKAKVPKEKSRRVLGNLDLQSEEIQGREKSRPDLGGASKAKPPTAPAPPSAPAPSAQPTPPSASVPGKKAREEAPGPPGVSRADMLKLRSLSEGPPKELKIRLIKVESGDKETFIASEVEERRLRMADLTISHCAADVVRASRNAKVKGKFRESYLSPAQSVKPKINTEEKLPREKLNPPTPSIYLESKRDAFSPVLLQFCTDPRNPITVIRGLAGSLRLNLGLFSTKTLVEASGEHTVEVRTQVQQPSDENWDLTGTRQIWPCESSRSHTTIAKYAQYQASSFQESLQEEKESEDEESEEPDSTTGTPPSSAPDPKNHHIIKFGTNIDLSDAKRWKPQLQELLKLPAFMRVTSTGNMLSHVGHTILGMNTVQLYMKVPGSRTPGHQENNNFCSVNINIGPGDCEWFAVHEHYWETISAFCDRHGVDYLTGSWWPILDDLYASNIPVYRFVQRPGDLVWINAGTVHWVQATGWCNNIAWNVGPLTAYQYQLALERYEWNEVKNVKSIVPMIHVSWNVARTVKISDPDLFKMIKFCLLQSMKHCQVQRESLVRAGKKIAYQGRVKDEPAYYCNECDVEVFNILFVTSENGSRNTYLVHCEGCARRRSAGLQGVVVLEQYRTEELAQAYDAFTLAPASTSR
- protocol.text: AlphaScreen JMJD3 demethylase inhibition
- Assay type: biochemical
- measurement.context: compound at 25 μM
Answers are plain numbers, in %.

Answered examples (2):
[[record]]
compound = "COc1ncc(-c2cnc3c(C(=O)O)ccc(C(=O)O)c3c2)c(OC)n1"
parameter = "inhibition at 25 µM"
quantitative_readout = 90

[[record]]
compound = "O=C(O)c1ccc(-c2cnc3c(C(=O)O)ccc(C(=O)O)c3c2)s1"
parameter = "inhibition at 25 µM"
quantitative_readout = 60


Reported inhibition at 25 µM ( NS(=O)(=O)c1ccc(-c2cnc3c(C(=O)O)ccc(C(=O)O)c3c2)cc1 ) = 65

----------
- study.system: JMJD3 (Homo sapiens)
parameter: pIC50
Answers are plain numbers, as −log10 of the molar value.

Sample COc1ncc(-c2cnc3c(C(=O)O)ccc(C(=O)O)c3c2)c(OC)n1 ; pIC50 observed: 5.82

Recorded values, source paper PMC6055880.
